study-conditions: cell viability/%
Description: Each type of assay must be simplified and miniaturized to assess the activities of the library peptides in a 96-well format for the high-throughput screening. […] Mammalian cytotoxicity assay of bead-derived peptides . P388 cells were obtained from Institute of […] for 92 h, the numbers of viable cells were determined by […] at 37 °C. The absorbance of each well at 415 nm was measured using a Benchmark microplate reader (Bio-Rad). The cytotoxicities were evaluated as cell viability (%). […]
Where a SMILES comes first, the peptide text is derived from it. [ ]: non-standard residue; d: D form. The star is where a group is joined. NHCH2CH2OH = OCCN*; For = O=C*
Listed here are molecules together with their documented viability.
Number in %, nothing else.

molecule="CC(C)C[C@@H](NC(=O)[C@H](C)NC(=O)CNC(=O)[C@@H](NC=O)C(C)C)C(=O)N[C@@H](C)C(=O)N[C@H](CC(C)C)C(=O)N[C@H](C(=O)N[C@@H](C(=O)N[C@@H](Cc1c[nH]c2ccccc12)C(=O)N[C@@H](C(=O)N[C@@H](Cc1c[nH]c2ccccc12)C(=O)N[C@@H](C(=O)N[C@@H](Cc1c[nH]c2ccccc12)C(=O)N[C@H](CC(C)C)C(=O)N[C@@H](Cc1c[nH]c2ccccc12)C(=O)NCCO)C(C)C)C(C)C)C(C)C)C(C)C [compound 905] (For-VGA[dL]A[dL]V[dV]W[dV]W[dV]W[dL]W-NHCH2CH2OH)" measurement_units=% measured_number=90.6

Now consider the entry below.
### Prompt Please list viability recorded for the molecule CC(C)C[C@@H](NC(=O)[C@H](C)NC(=O)CNC(=O)[C@@H](NC=O)C(C)C)C(=O)N[C@@H](C)C(=O)N[C@@H](C(=O)N[C@H](C(=O)N[C@@H](C(=O)N[C@@H](Cc1c[nH]c2ccccc12)C(=O)N[C@@H](C(=O)N[C@@H](Cc1c[nH]c2ccccc12)C(=O)N[C@@H](C(=O)N[C@@H](Cc1c[nH]c2ccccc12)C(=O)N[C@H](CC(C)C)C(=O)N[C@@H](Cc1c[nH]c2ccccc12)C(=O)NCCO)C(C)C)C(C)C)C(C)C)C(C)C)[C@H](C)O [compound 2475] (For-VGA[dL]A[dT]V[dV]W[dV]W[dV]W[dL]W-NHCH2CH2OH)
### Response 100

* * *

study-conditions: IC50, mammalian cytotoxicity assay
pIC50: −log10 of the molar value. Where a SMILES comes first, the peptide text is derived from it. [ ]: non-standard residue; d: D form. The star is where a group is joined. NHCH2CH2OH = OCCN*; For = O=C*
Class 1: pIC50 at least 8. Class 0: pIC50 below 8.

Recorded results for 4 molecules are shown here.
molecule="CC(C)C[C@@H](NC(=O)[C@H](C)NC(=O)[C@H](NC(=O)[C@H](C)NC(=O)CNC(=O)[C@@H](NC=O)C(C)C)C(C)C)C(=O)N[C@H](C(=O)N[C@@H](C(=O)N[C@@H](Cc1c[nH]c2ccccc12)C(=O)N[C@@H](C(=O)N[C@@H](Cc1c[nH]c2ccccc12)C(=O)N[C@H](CC(C)C)C(=O)N[C@@H](Cc1c[nH]c2ccccc12)C(=O)N[C@H](CC(C)C)C(=O)N[C@@H](Cc1c[nH]c2ccccc12)C(=O)NCCO)C(C)C)C(C)C)C(C)C [B02] (For-VGA[dV]A[dL]V[dV]W[dV]W[dL]W[dL]W-NHCH2CH2OH)" label=0
molecule="CC(C)C[C@@H](NC(=O)[C@H](C)NC(=O)CNC(=O)[C@@H](NC=O)C(C)C)C(=O)N[C@@H](C)C(=O)N[C@@H](C(=O)N[C@H](C(=O)N[C@@H](C(=O)N[C@@H](Cc1c[nH]c2ccccc12)C(=O)N[C@H](CC(C)C)C(=O)N[C@@H](Cc1c[nH]c2ccccc12)C(=O)N[C@H](CC(C)C)C(=O)N[C@@H](Cc1c[nH]c2ccccc12)C(=O)N[C@@H](C(=O)N[C@@H](Cc1c[nH]c2ccccc12)C(=O)NCCO)C(C)C)[C@H](C)O)C(C)C)C(C)C [B12] (For-VGA[dL]A[dV]V[dT]W[dL]W[dL]W[dV]W-NHCH2CH2OH)" label=0
molecule="CC(C)C[C@@H](NC(=O)[C@H](C)NC(=O)CNC(=O)[C@@H](NC=O)C(C)C)C(=O)N[C@@H](C)C(=O)N[C@@H](C(=O)N[C@H](C(=O)N[C@@H](C(=O)N[C@@H](Cc1c[nH]c2ccccc12)C(=O)N[C@@H](C(=O)N[C@@H](Cc1c[nH]c2ccccc12)C(=O)N[C@@H](C(=O)N[C@@H](Cc1c[nH]c2ccccc12)C(=O)N[C@@H](C(=O)N[C@@H](Cc1c[nH]c2ccccc12)C(=O)NCCO)C(C)C)C(C)C)C(C)C)C(C)C)C(C)C)C(C)C [B03] (For-VGA[dL]A[dV]V[dV]W[dV]W[dV]W[dV]W-NHCH2CH2OH)" label=0
molecule="CC(C)C[C@@H](NC(=O)[C@H](C)NC(=O)CNC(=O)[C@@H](NC=O)C(C)C)C(=O)N[C@@H](C)C(=O)N[C@@H](C(=O)N[C@H](C(=O)N[C@@H](C(=O)N[C@@H](Cc1c[nH]c2ccccc12)C(=O)N[C@H](CC(C)C)C(=O)N[C@@H](Cc1c[nH]c2ccccc12)C(=O)N[C@H](CC(C)C)C(=O)N[C@@H](Cc1c[nH]c2ccccc12)C(=O)N[C@H](CC(C)C)C(=O)N[C@@H](Cc1c[nH]c2ccccc12)C(=O)NCCO)C(C)C)C(C)C)C(C)C [compound 1, Gramicidin A] (For-VGA[dL]A[dV]V[dV]W[dL]W[dL]W[dL]W-NHCH2CH2OH)" label=1

### Prompt Record CC(C)C[C@@H](NC(=O)[C@H](Cc1c[nH]c2ccccc12)NC(=O)[C@@H](CC(C)C)NC(=O)[C@H](Cc1c[nH]c2ccccc12)NC(=O)[C@@H](CC(C)C)NC(=O)[C@H](Cc1c[nH]c2ccccc12)NC(=O)[C@H](NC(=O)[C@@H](NC(=O)[C@H](NC(=O)[C@H](C)NC(=O)[C@H](NC(=O)[C@H](C)NC(=O)CNC(=O)[C@@H](NC=O)C(C)C)C(C)C)C(C)C)C(C)C)C(C)C)C(=O)N[C@@H](Cc1c[nH]c2ccccc12)C(=O)NCCO [A1] (For-VGA[dV]A[dV]V[dV]W[dL]W[dL]W[dL]W-NHCH2CH2OH) ; criterion: pIC50 no lower than 8. Met?
### Response 1
